Source listed as PubChem BioAssay (NCI).

- Tested on: NCI-H23 lung
- Method notes: NCI tumour cell line growth inhibition, 48 h
Each item that follows carries a reported TGI.

// known answers, use as guide
Compound | TGI
CC(C)(C)n1c(=O)n2c(-c3ccccc3)c(-c3ccccc3)n2c1=O | > 100 µM
O=[N+]([O-])c1ccc2c3c1[C@@H]1O[C@@H]1c1cccc(c1-3)[C@@H]1O[C@H]21 | 11.6 µM
COC(=O)C(C)NP(=O)(OCc1cccc(Cn2cnc3c(N)ncnc32)c1)Oc1ccccc1 (stereo not given) | > 100 µM
C=CCN1C(=O)NC(=O)/C(=C/c2c3ccccc3cc3ccccc23)C1=O | > 10 µM
CC(C)(C)C1CCC(O)(c2ccccc2)CC1 (stereo not given) | > 100 µM

Q) Look up and report TGI, with NCI-H23 lung as system, for CN(C)c1ccc(/C=C2\CCc3ccccc3C2=O)cc1Br
A) > 100 µM

====

- Tested on: RXF 393 renal
- Method notes: NCI tumour cell line growth inhibition, 48 h
Readout: TGI (µM)
Report the value in µM with no unit label.

Q) Write down TGI measured for item O=c1c(-c2ccccc2)c(SCCCN2CCCCC2)n(-c2ccccc2)c(=S)n1-c1ccccc1
A) 27.7

Q) Write down TGI measured for item CC1(c2ccc(Cl)cc2)C=C(c2ccc(Cl)cc2)C(C#N)=C(C(C#N)C#N)N1 (stereo not given)
A) 38.2

====

- Test system: HCT-15 colon
- Method notes: NCI tumour cell line growth inhibition, 48 h
Readout: TGI

Compound | TGI
CCCCCC(=O)OC[n+]1cccc(-c2c(COC(=O)NC(C)C)c(COC(=O)NC(C)C)c3n2CCC3)c1 | > 100 µM
CCCCC(C(=O)C(=O)Nc1ccccc1CC)C(=O)C(C)C (stereo not given) | > 100 µM
CN(C)CCCC1(c2ccc(F)cc2)OCc2cc(-c3csc4ccccc34)ccc21 (stereo not given) | 3.07 µM
O=C1CSC(c2cc3cc(Br)ccc3nc2Cl)N1c1ccc(Cl)cc1 (stereo not given) | 88.8 µM
O=C(CCN1CCOCC1)Nc1ccc(Cn2nnc3c2C(=O)c2nnn(Cc4ccc(NC(=O)CCN5CCOCC5)cc4)c2C3=O)cc1 | > 100 µM
Fc1ccc2c(c1)SC1=Nc3sc4cc(F)ccc4[n+]3CN12 | > 100 µM
CCCCCNC(=O)CCCCCCCCCCCNC(=O)CCCCCCCCCCN1C=CC(=CC=C2C=CC(=O)C=C2)C=C1 | > 100 µM
CCOC(=O)c1cn(-c2ccc([N+](=O)[O-])cc2)c(=S)n2c1nc1ccccc12 | > 100 µM

Q) Write down TGI measured for item CCOC(=O)C#Cc1c(C(=O)OCC)nnn1[C@@H]1O[C@H](COC)[C@@H](OC)[C@H]1OC
A) 6.66 µM

Q) Write down TGI measured for item NC(Cc1cc(I)c(Oc2ccc(O)c(I)c2)c(I)c1)C(=O)O (stereo not given)
A) > 100 µM

====

Each item that follows carries a reported TGI.
- System: HCC-2998 colon
- Method notes: NCI tumour cell line growth inhibition, 48 h
Report the value in µM with no unit label.

Compound | TGI, µM
CN(C)CCCC1(c2ccc(F)cc2)OCc2cc(-c3csc4ccccc34)ccc21 (stereo not given) | 3.14
COc1ccc(-n2c(=O)c3ccccc3n(Cc3ccc(C(=O)NO)cc3)c2=O)cc1 | 3.58
Oc1c(Br)cc(Cl)cc1C(c1cc(Cl)cc(Br)c1O)C(Cl)(Cl)Cl | 8.48
Cn1cc(-c2ccc3c(c2)ncn3-c2cc(NS(=O)(=O)C3CC3)cc(-c3ccc(F)cc3F)c2)cn1 | 80.1
COC(=O)/C=C1\C(CO[Si](C)(C)C(C)(C)C)OC(n2ccc(=O)[nH]c2=O)C1O (stereo not given) | 26.2

Q) Write down TGI measured for item FC(F)(F)c1cccc(CNC2CCN(CCc3ccccc3)CC2)c1
A) 37.2

Q) Write down TGI measured for item O=C(O)CSc1cc(NS(=O)(=O)c2ccc(Br)cc2)c2ccccc2c1O
A) 33.9

Q) Write down TGI measured for item O=C(NO)c1ccc(CNc2cccc3nc(C4CC4)n(-c4ccccc4)c(=O)c23)cc1
A) 3.44

Q) Write down TGI measured for item CNCc1cccc2c1OCCOCCOCCNS(=O)(=O)c1ccc(cc1)-c1cnc(N)c(n1)C(=O)N2
A) 4.69

Q) Write down TGI measured for item COc1cc(NC(=O)COc2ccccc2)c(C(N)=O)cc1OC
A) 68.3
